system tested: GIPC2, Q8TF65
Sequence (Q8TF65 112-203): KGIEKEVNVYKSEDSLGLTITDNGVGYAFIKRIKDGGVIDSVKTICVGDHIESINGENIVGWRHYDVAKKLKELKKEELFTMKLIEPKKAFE
method notes: holdup assay
Parameters: key: below the threshold = too weak to quantify, mostly under pKd 3.1 to 4
experimental conditions: plain residues with an end cap or a label only (N-terminal biotin on a linker: ttds)
recorded metric: pKd

QFQYAKESYI [TAGAP, Q8N103]: 3.78
DPRNTQTSQI [ABRAXAS2, Q15018]: 3.54
LCALPKVTTV [AGMAT, Q9BSE5]: below the threshold
GGPKEEESPV [SLC16A1, P53985]: below the threshold
